assay: Cytotoxicity against osteoblasts after 48 hrs by MTT assay; format: cell-based; settings: osteoblast
MEASURED ENDPOINT: Activity

Worked examples follow.
- COc1ccc(-c2cc(-c3ccccc3)oc(=O)c2-c2ccc(OCCN3CCCCC3)cc2)cc1: Toxic
- O=c1oc(-c2ccccc2)cc(-c2ccc(O)cc2)c1-c1ccc(O)cc1: Non-toxic
- O=c1oc(-c2ccccc2)cc(-c2ccc(OCCN3CCCCC3)cc2)c1-c1ccccc1: Toxic
- O=c1oc(-c2ccc(O)cc2)cc(-c2ccccc2)c1-c1ccccc1: Toxic
- O=c1oc(-c2ccc(O)cc2)cc(-c2ccc(O)cc2)c1-c1ccccc1: Non-toxic
- O=c1oc(-c2ccccc2)cc(-c2ccc(OCCN3CCCC3)cc2)c1-c1ccccc1: Toxic
- O=c1oc(-c2ccc(OCCN3CCCC3)cc2)cc(-c2ccccc2)c1-c1ccccc1: Toxic
- COc1ccc(-c2cc(-c3ccccc3)c(-c3ccc(O)cc3)c(=O)o2)cc1: Non-toxic

QUERY: Supply measured Activity of O=c1oc(-c2ccccc2)cc(-c2ccccc2)c1-c1ccc(O)cc1 in your reply.
RESULT: Non-toxic

====

system: Vero; experiment: Cytotoxicity against african green monkey Vero cells after 48 hrs by MTT assay; type: cell-based; conditions: chlorocebus sabaeus
MEASURED ENDPOINT: Activity

- O=c1oc(-c2ccccc2)cc(-c2ccc(OCCN3CCCCC3)cc2)c1-c1ccccc1: Toxic
- O=c1oc(-c2ccccc2)cc(-c2ccc(OCCN3CCCC3)cc2)c1-c1ccccc1: Toxic
- COc1ccc(-c2cc(-c3ccccc3)oc(=O)c2-c2ccc(OCCN3CCCCC3)cc2)cc1: Toxic

====

test system: Vero; assay: Cytotoxicity against african green monkey Vero cells after 48 hrs by MTT assay; type: cell-based; conditions: chlorocebus sabaeus
MEASURED ENDPOINT: Activity

Solved cases below.
• O=c1oc(-c2ccc(O)cc2)cc(-c2ccc(O)cc2)c1-c1ccccc1 = Non-toxic
• COc1ccc(-c2cc(-c3ccccc3)c(-c3ccc(O)cc3)c(=O)o2)cc1 = Non-toxic
• O=c1oc(-c2ccc(OCCN3CCCC3)cc2)cc(-c2ccccc2)c1-c1ccccc1 = Toxic
• O=c1oc(-c2ccc(O)cc2)cc(-c2ccccc2)c1-c1ccccc1 = Toxic

Now look at this one.
QUERY: Provide only the value of recorded Activity for O=c1oc(-c2ccccc2)cc(-c2ccccc2)c1-c1ccc(O)cc1
RESULT: Non-toxic

====

Target: Prostaglandin G/H synthase 2 (Homo sapiens)
Sequence (P35354 whole entry): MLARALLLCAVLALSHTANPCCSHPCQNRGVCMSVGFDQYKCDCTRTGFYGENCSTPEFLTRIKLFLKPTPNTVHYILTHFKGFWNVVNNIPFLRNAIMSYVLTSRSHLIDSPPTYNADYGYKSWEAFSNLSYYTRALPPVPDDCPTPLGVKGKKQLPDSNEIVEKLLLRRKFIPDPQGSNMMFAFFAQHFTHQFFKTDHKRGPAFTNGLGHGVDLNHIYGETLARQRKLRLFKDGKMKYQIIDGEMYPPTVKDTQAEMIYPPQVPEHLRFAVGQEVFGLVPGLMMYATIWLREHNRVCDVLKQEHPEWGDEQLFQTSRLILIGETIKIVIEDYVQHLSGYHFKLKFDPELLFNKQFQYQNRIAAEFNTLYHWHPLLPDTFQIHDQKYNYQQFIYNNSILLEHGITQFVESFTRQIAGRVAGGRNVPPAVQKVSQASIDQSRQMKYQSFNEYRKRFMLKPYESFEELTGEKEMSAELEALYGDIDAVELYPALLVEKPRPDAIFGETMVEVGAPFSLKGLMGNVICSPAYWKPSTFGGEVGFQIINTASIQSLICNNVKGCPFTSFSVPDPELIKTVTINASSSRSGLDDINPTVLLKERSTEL
MEASURED ENDPOINT: IC50 (nM)
One number for each entry, in nM.

QUERY: Name the value of IC50 reported for COc1ccc(-c2cc(-c3ccccc3)c(-c3ccc(S(C)(=O)=O)cc3)c(=O)o2)cc1 when tested on Prostaglandin G/H synthase 2 (Homo sapiens).
RESULT: 20
